Target: Human Calpain 9/NS1 (Homo sapiens, UniProt O14815)
Sequence (O14815 1-690): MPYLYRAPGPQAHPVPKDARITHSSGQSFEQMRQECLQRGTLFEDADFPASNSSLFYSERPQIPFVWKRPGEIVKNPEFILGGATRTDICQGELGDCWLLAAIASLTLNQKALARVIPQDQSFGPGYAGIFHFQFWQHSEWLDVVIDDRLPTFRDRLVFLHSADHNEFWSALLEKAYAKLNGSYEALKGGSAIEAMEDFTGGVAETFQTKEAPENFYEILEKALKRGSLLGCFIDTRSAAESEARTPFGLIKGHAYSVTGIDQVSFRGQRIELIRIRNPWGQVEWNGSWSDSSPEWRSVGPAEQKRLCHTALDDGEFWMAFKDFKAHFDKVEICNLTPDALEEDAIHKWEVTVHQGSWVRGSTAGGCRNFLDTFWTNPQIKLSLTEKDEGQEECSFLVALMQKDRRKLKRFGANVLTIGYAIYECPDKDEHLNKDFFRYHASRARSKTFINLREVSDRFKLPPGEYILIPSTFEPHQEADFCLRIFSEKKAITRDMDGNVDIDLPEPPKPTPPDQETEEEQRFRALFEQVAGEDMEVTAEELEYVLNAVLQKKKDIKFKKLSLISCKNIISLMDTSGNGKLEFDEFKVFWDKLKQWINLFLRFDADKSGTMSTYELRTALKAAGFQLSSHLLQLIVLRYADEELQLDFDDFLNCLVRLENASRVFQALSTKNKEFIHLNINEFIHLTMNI
Sequence (P04632 1-268 partner): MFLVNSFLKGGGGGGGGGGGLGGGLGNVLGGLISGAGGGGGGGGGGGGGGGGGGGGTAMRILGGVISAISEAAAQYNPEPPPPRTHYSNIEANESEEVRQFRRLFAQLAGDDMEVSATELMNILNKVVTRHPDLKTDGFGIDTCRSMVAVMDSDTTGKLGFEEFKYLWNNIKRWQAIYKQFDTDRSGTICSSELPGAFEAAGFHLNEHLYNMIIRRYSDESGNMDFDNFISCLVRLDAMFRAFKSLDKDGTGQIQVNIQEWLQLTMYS
Test: Calpain inhibition continuous fluorescence (FRET) assay, Human Calpain 9/NS1
Format: biochemical
Details: read-out: Human Calpain 9/NS1 IC50
pIC50: −log10 of the molar value.
Recorded pIC50 for the following compounds
experimental readout: pIC50

# compound, experimental readout, val
measured = [
    ("Cc1cccc(-c2nsnc2C(=O)NC(Cc2ccccc2)C(=O)C(N)=O)c1 (centres unmarked)", "pIC50", "> 5.52"),
    ("NC(=O)C(=O)C(Cc1ccccc1)NC(=O)c1cn(C(F)F)nc1-c1cnccn1 (centres unmarked)", "pIC50", "> 5.52"),
    ("NC(=O)C(=O)C(Cc1ccc(F)cc1)NC(=O)c1nsnc1-c1ccccc1 (centres unmarked)", "pIC50", "> 5.52"),
    ("Cc1cc(C(=O)N[C@@H](Cc2ccccc2)C(=O)CF)n(-c2cnccn2)n1", "pIC50", "5.00 to 5.52"),
    ("Cn1cc(C(=O)NC(CCC(F)(F)F)C(=O)C(N)=O)c(-c2ccccc2)n1 (centres unmarked)", "pIC50", "5.00 to 5.52"),
    ("NC(=O)C(=O)[C@H](Cc1ccccc1)NC(=O)c1cc(C2CC2)nn1-c1ccccc1", "pIC50", "5.00 to 5.52"),
    ("Cn1cc(C(=O)NC(Cc2ccccc2)C(=O)C(N)=O)c(-c2ccc(C#N)nc2)n1 (centres unmarked)", "pIC50", "> 5.52"),
    ("NC(=O)C(=O)C(Cc1ccccc1)NC(=O)c1nsnc1-c1cccc2c1OCO2 (centres unmarked)", "pIC50", "> 5.52"),
    ("Cn1cc(C(=O)NC(Cc2ccccc2)C(=O)C(N)=O)c(N2CCS(=O)(=O)CC2)n1 (centres unmarked)", "pIC50", "> 5.52"),
    ("NC(=O)C(=O)C(Cc1ccccc1)NC(=O)c1cn(C(F)F)nc1-c1cc2ccccc2cn1 (centres unmarked)", "pIC50", "> 5.52"),
    ("Cn1cc(C(=O)NC(Cc2ccccc2)C(=O)C(N)=O)c(-c2ccc3c(c2)OCO3)n1 (centres unmarked)", "pIC50", "> 5.52"),
    ("Cc1nc(C(=O)NC(Cc2ccccc2)C(=O)C(N)=O)c(-c2ccccc2)o1 (centres unmarked)", "pIC50", "> 5.52"),
    ("Cc1csc(-c2nn(C)cc2C(=O)NC(Cc2ccccc2)C(=O)C(N)=O)c1 (centres unmarked)", "pIC50", "> 5.52"),
    ("Cn1cc(C(=O)NC(Cc2ccccc2)C(=O)C(N)=O)c(N2CCN(C(=O)OCc3ccccc3)CC2)n1 (centres unmarked)", "pIC50", "5.00 to 5.52"),
    ("Cn1cc(C(=O)NC(Cc2ccccc2)C(=O)C(N)=O)c(-c2ccco2)n1 (centres unmarked)", "pIC50", "> 5.52"),
    ("Cn1cc(C(=O)NC(Cc2ccccc2)C(=O)C(N)=O)c(-c2cccc(F)c2F)n1 (centres unmarked)", "pIC50", "> 5.52"),
    ("Cn1cc(C(=O)NC(Cc2ccccc2)C(=O)C(N)=O)c(-c2cnc3ccccc3c2)n1 (centres unmarked)", "pIC50", "> 5.52"),
]

---

Overview of recorded Interaction Distances P2-Ala255 for various compounds
biological target: human calpain 9 (Homo sapiens, UniProt O14815); construct: human calpain 9, residues 27-347, was over expressed in E. coli BL21 (DE3); hexa-histidine (N); made in house; host or cells: E. coli BL21 (DE3); assay: Calpain binding: crystal structure interaction distances, human calpain 9; conditions: non-polar interactions with human calpain 9

# smiles text, Interaction Distances P2-Ala255 (Å)
data = [
    ("NC(=O)C(=O)[C@H](Cc1ccccc1)NC(=O)c1snnc1-c1ccccc1", 3.9),
    ("CCCC[C@H](NC(=O)c1oc(C)nc1-c1ccccc1)C(=O)C(N)=O", 4.1),
    ("NC(=O)C(=O)[C@H](Cc1ccccc1)NC(=O)c1nsnc1-c1ccccc1", 3.6),
    ("Cn1cc(C(=O)N[C@@H](Cc2ccccc2)C(=O)C(N)=O)c(-c2ccccc2)n1", 4.3),
]

---

molecules and their reported pIC50
target: Human Calpain 9/NS1 (Homo sapiens, UniProt O14815); assay: Calpain inhibition continuous fluorescence (FRET) assay, Human Calpain 9/NS1; type: biochemical; conditions: Column C; read-out: Human Calpain 9/NS1 IC50
pIC50: −log10 of the molar value.

# molecule, pIC50
measured = [
    ("Cc1onc(-c2ccccc2)c1C(=O)N[C@@H](Cc1ccccc1)C(=O)C(N)=O", "> 5.52"),
    ("O=C(NC1CC1)C(=O)[C@H](Cc1ccccc1)NC(=O)c1cncn1-c1nc2ccccc2s1", "> 5.52"),
    ("COc1ccc2nc(-n3nc(C(=O)N[C@@H](Cc4ccccc4)C(=O)C(N)=O)cc3C)sc2c1", "> 5.52"),
    ("NC(=O)C(=O)[C@H](Cc1ccccc1)NC(=O)c1cncn1-c1ncc(-c2ccccc2)cn1", "> 5.52"),
    ("Cc1cc(C(=O)N[C@@H](Cc2ccccc2)C(=O)C(N)=O)n(-c2ccncn2)n1", "> 5.52"),
    ("Cc1ccc(-c2nn(C)cc2C(=O)N[C@@H](Cc2ccccc2)C(=O)C(N)=O)cc1", "> 5.52"),
    ("O=C(NC1CC1)C(=O)[C@H](Cc1ccccc1)NC(=O)c1nn[nH]c1-c1ccccc1", "< 5.00"),
    ("NC(=O)C(=O)[C@H](Cc1ccccc1)NC(=O)c1c[nH]nc1-c1ccccc1", "> 5.52"),
    ("Cn1cc(C(=O)N[C@@H](Cc2ccccc2)C(=O)C(N)=O)c(-c2cccc(C#N)c2)n1", "5.00 to 5.52"),
    ("Cc1cc(C(=O)N[C@H](C=O)Cc2ccccc2)n(-c2ccncn2)n1", "5.00 to 5.52"),
    ("CCc1cc(C(=O)N[C@@H](Cc2ccccc2)C(=O)C(N)=O)n(-c2ccccc2)n1", "> 5.52"),
    ("Cc1cc(C(=O)N[C@@H](Cc2ccccc2)C(=O)C(N)=O)n(-c2ncccn2)n1 (single isomer, unassigned) [Compound 36]", "5.00 to 5.52"),
    ("NC(=O)C(=O)[C@H](Cc1ccccc1)NC(=O)c1scnc1-c1ccccc1", "> 5.52"),
    ("NC(=O)C(=O)[C@H](Cc1ccccc1)NC(=O)c1scnc1-n1cc2ccccc2n1", "> 5.52"),
    ("Cc1cc(C(=O)N[C@@H](Cc2ccccc2)C(=O)C(N)=O)n(-c2cncnc2)n1", "> 5.52"),
    ("Cn1cc(C(=O)N[C@@H](Cc2ccccc2)C(=O)C(N)=O)c(-c2ccccn2)n1", "> 5.52"),
]
